The measured values listed here are drawn from paper PMC4450297.

# Tested on: NCI-H1650 cells
# Test: Soft-agar colony formation assay
# Type: cell-based
# Setup Conditions: Homo sapiens, 168 h; NCI-H1650 cells in soft agar, one week, Alamar Blue; read-out: IC50, cell colony formation
Reported Property: pIC50
Remember the convention: pIC50 equals -log10 of concentration in molar.

Below: 4 compounds and their reported pIC50.
input: Quick check: pIC50 of CC(C)=CCC/C(C)=C/Cc1c(O)c(CC=C(C)C)c2c(c1O)C(=O)C1=C[C@@H]3C[C@H]4C(C)(C)O[C@@](C/C=C(\C)C(=O)O)(C3=O)[C@@]14O2 [GB63] ?
output: 5.58

input: Request the reported pIC50 associated with CC(C)=CCC/C(C)=C/Cc1c(O)c(CC=C(C)C)c2c(c1O)C(=O)C1=C[C@@H]3C[C@H]4C(C)(C)O[C@@](CC=C(C)C)(C3=O)[C@@]14O2 [GB32]
output: 5.50

input: Item under review: CC(C)=CCC[C@@]1(C)C=Cc2c(O)c3c(c(C/C=C(\C)CO)c2O1)O[C@]12C(=C[C@@H]4C[C@H]1C(C)(C)O[C@@]2(C/C=C(/C)C(=O)O)C4=O)C3=O [GB40, 35-hydroxyepigambogic acid] . Reported pIC50?
output: 5.97

input: Give its pIC50 value. Item: CC(C)=CCC[C@@]1(C)C=Cc2c(O)c3c(c(CCC(C)(C)O)c2O1)O[C@]12C(=C[C@@H]4C[C@H]1C(C)(C)O[C@@]2(C/C=C(/C)C(=O)O)C4=O)C3=O [GB39, 33-hydroxyepigambogic acid]
output: 5.90

Here is another compound to look at.
input: Param item = CC(C)=CCC/C(C)=C/Cc1c(O)c(CC=C(C)C)c2c(c1O)C(=O)C1=C[C@@H]3C[C@H]4C(C)(C)O[C@@](C/C=C(\C)C=O)(C3=O)[C@@]14O2 [GB49] ; retrieve measured pIC50.
output: 5.41

====

# Test system: CHP212
# Test: Cell proliferation assay (CellTiter-Glo)
# Type: cell-based
# Setup Conditions: Homo sapiens, CHP-212, CHP212 cells, 72 h
Measured pIC50 of individual entries
// returns pIC50 (minus log10 of molar concentration), number only

input: pIC50 lookup needed for CC(C)=CCC[C@@]1(C)C=Cc2c(O)c3c(c(CCC(C)(C)O)c2O1)O[C@]12C(=C[C@@H]4C[C@H]1C(C)(C)O[C@@]2(C/C=C(/C)C(=O)O)C4=O)C3=O [GB39, 33-hydroxyepigambogic acid] , thanks.
output: 5.92

***
input: Quick one: pIC50 of CC(C)=CCC/C(C)=C/Cc1c(O)c(CC=C(C)C)c2c(c1O)C(=O)C1=C[C@@H]3C[C@H]4C(C)(C)O[C@@](CC=C(C)C)(C3=O)[C@@]14O2 [GB32] ?
output: 5.84

input: If you can, please state the reported pIC50 value of CC(C)=CCC[C@@]1(C)C=Cc2c(O)c3c(c(C/C=C(\C)CO)c2O1)O[C@]12C(=C[C@@H]4C[C@H]1C(C)(C)O[C@@]2(C/C=C(/C)C(=O)O)C4=O)C3=O [GB40, 35-hydroxyepigambogic acid] .
output: 5.93

====

Entries annotated with measured Percent Inhibition
# System: CCF-STTG1
# Test: Cell panel screen (CellTiter-Glo)
# Type: cell-based, human
# Setup Conditions: CCF-STTG1 (Brain), 20 micromolar, 72 hrs
Express your answer in %, writing the number without its unit.

input: Need Percent Inhibition, item O=c1c2cc(O)ccc2oc2cccc(O)c12 [Gof3]
output: 31

input: Quick one: Percent Inhibition of CC(C)=CCCC1(C)C=Cc2c(O)c3c(c(CC=C(C)C)c2O1)OC12C(=CC4CC1C(C)(C)OC2(CC=C(C)C(=O)O)C4=O)C3=O (mixture of isomers) [GB14] ?
output: 98

input: For the compound CCOC(=O)C1OC(Oc2cc(O)c3c(c2)OC(c2ccc(O)c(O)c2)CC3=O)C(O)C(O)C1O (stereo not shown) [gly-3] , what Percent Inhibition is on record?
output: -4

Next:
input: // lookup Percent Inhibition for COc1ccc2c(=O)c3c(O)cc(O)cc3oc2c1OC [Go-14]
output: -1

====

compounds and their reported Percent Inhibition
# Tested on: C8166
# Test: Cell panel screen (CellTiter-Glo)
# Type: cell-based, human
# Setup Conditions: C8166 (Leukemia), 20 micromolar, 72 hrs
Quote the value and follow it with the unit of measurement.

input: Recall the recorded Percent Inhibition for COC(=O)C1OC(Oc2cc(O)c3c(=O)cc(-c4ccc(O)cc4)oc3c2)C(O)C(O)C1O (stereo not shown) with C8166 and state it.
output: -15%

====

# Test system: C8166
# Test: Cell panel screen (CellTiter-Glo)
# Assay type: cell-based, human
# Setup Conditions: Homo sapiens; C8166 (Leukemia), 20 micromolar, 72 hrs; read-out: Percent Inhibition
Reported Property: inhibition at 20 µM (%)
Please state the figure in %; there is no need to write the unit.

input: Could you tell me which inhibition at 20 µM is on file for CC(C)=CCC[C@@]1(C)C=Cc2c(O)c3c(c(CCC(C)(C)O)c2O1)O[C@]12C(=C[C@@H]4C[C@H]1C(C)(C)O[C@@]2(C/C=C(/C)C(=O)O)C4=O)C3=O [GB39, 33-hydroxyepigambogic acid] ?
output: 100

input: Need inhibition at 20 µM, item `CC(C)=CCC/C(C)=C/Cc1c(O)c(CC=C(C)C)c2c(c1O)C(=O)C1=C[C@@H]3C[C@H]4C(C)(C)O[C@@](C/C=C(\C)C(=O)O)(C3=O)[C@@]14O2`
output: 100

input: Requested read-out: inhibition at 20 µM. Entry: `CC(C)=CCc1c(O)cc2oc3c(CC=C(C)C)c(O)c(O)c(CC=C(C)C)c3c(=O)c2c1O`
output: 99

input: What value of inhibition at 20 µM has been reported for the following molecule? `CC(C)=CCC/C(C)=C/Cc1c(O)c(CC=C(C)C)c2c(c1O)C(=O)C1=C[C@@H]3C[C@H]4C(C)(C)O[C@@](C/C=C(\C)C=O)(C3=O)[C@@]14O2`
output: 99

# ---- query molecule ----
input: Data request, read-out inhibition at 20 µM, for CC(C)=CCC[C@@]1(C)C=Cc2c(O)c3c(c(C/C=C(\C)CO)c2O1)O[C@]12C(=C[C@@H]4C[C@H]1C(C)(C)O[C@@]2(C/C=C(/C)C(=O)O)C4=O)C3=O [GB40, 35-hydroxyepigambogic acid]
output: 99

====

# Test system: ZR-75-30
# Test: Cell panel screen (CellTiter-Glo)
# Format: cell-based, human
# Setup Conditions: Homo sapiens; ZR-75-30 (Breast), 20 micromolar, 72 hrs; read-out: Percent Inhibition
Reported Property: inhibition at 20 µM (%)
Reply numerically in %, unit not repeated.

input: What does the data say about its inhibition at 20 µM? Entry: CC(C)=CCC[C@@]1(C)C=Cc2c(O)c3c(c(C/C=C(\C)CO)c2O1)O[C@]12C(=C[C@@H]4C[C@H]1C(C)(C)O[C@@]2(C/C=C(/C)C(=O)O)C4=O)C3=O [GB40, 35-hydroxyepigambogic acid]
output: 99

input: Any idea what inhibition at 20 µM was measured for CC(C)=CCC[C@@]1(C)C=Cc2c(O)c3c(c(CCC(C)(C)O)c2O1)O[C@]12C(=C[C@@H]4C[C@H]1C(C)(C)O[C@@]2(C/C=C(/C)C(=O)O)C4=O)C3=O [GB39, 33-hydroxyepigambogic acid] ?
output: 100

input: Quick check: inhibition at 20 µM of `CC(C)=CCC/C(C)=C/Cc1c(O)c(CC=C(C)C)c2c(c1O)C(=O)C1=C[C@@H]3C[C@H]4C(C)(C)O[C@@](C/C=C(\C)C(=O)O)(C3=O)[C@@]14O2` ?
output: 99

input: State the recorded inhibition at 20 µM for this entry: `CC(C)=CCc1c(O)cc2oc3c(CC=C(C)C)c(O)c(O)c(CC=C(C)C)c3c(=O)c2c1O`
output: 99

Switching to the query record.
input: Recorded inhibition at 20 µM for `CC(C)=CCC/C(C)=C/Cc1c(O)c(CC=C(C)C)c2c(c1O)C(=O)C1=C[C@@H]3C[C@H]4C(C)(C)O[C@@](C/C=C(\C)C=O)(C3=O)[C@@]14O2` , please?
output: 100

====

# System: HT-1197
# Test: Cell panel screen (CellTiter-Glo)
# Assay type: cell-based, human
# Setup Conditions: Homo sapiens, HT1197; HT-1197 (Urinary bladder), 20 micromolar, 72 hrs; read-out: Percent Inhibition
Entries and their inhibition at 20 µM values follow.
Dear colleague, please return just the value in %, with no unit written.

Observe how each entry below is paired with its result.
input: Query for HT-1197: what inhibition at 20 µM does the record show for CC(C)=CCC[C@@]1(C)C=Cc2c(O)c3c(c(C/C=C(\C)CO)c2O1)O[C@]12C(=C[C@@H]4C[C@H]1C(C)(C)O[C@@]2(C/C=C(/C)C(=O)O)C4=O)C3=O [GB40, 35-hydroxyepigambogic acid] ?
output: 99

input: Request - read-out inhibition at 20 µM | tested on HT-1197 | compound `CC(C)=CCC/C(C)=C/Cc1c(O)c(CC=C(C)C)c2c(c1O)C(=O)C1=C[C@@H]3C[C@H]4C(C)(C)O[C@@](C/C=C(\C)C(=O)O)(C3=O)[C@@]14O2`
output: 99

input: Can you look up inhibition at 20 µM on HT-1197 for `CC(C)=CCc1c(O)cc2oc3c(CC=C(C)C)c(O)c(O)c(CC=C(C)C)c3c(=O)c2c1O` ?
output: 97

Others:
input: # returns recorded inhibition at 20 µM (system: HT-1197) for `CC(C)=CCC/C(C)=C/Cc1c(O)c(CC=C(C)C)c2c(c1O)C(=O)C1=C[C@@H]3C[C@H]4C(C)(C)O[C@@](C/C=C(\C)C=O)(C3=O)[C@@]14O2`
output: 96

input: I'm curious: which inhibition at 20 µM was measured for CC(C)=CCC[C@@]1(C)C=Cc2c(O)c3c(c(CCC(C)(C)O)c2O1)O[C@]12C(=C[C@@H]4C[C@H]1C(C)(C)O[C@@]2(C/C=C(/C)C(=O)O)C4=O)C3=O [GB39, 33-hydroxyepigambogic acid] tested on HT-1197?
output: 100
